Attribution: patent US20220380341A1

target: HIV-1 NefNL4-3 (Human immunodeficiency virus type 1 group M subtype B, UniProt P03406, A33V/T15A/T51N/V11I); test: Surface plasmon resonance binding to recombinant full-length Nef (NL4-3); conditions: read-out: Nef NL4-3 Binding, SPR 1:1 or 2-site fitting KD2; Table 2; 2-site fit, second component
parameter_measured: Kd (µM)
Give just the number in µM; leave the unit off.

Exam item: Give a short answer stating reported Kd for Oc1c(CCc2ccc(F)cc2)c(-c2ccc(C(F)(F)F)cc2)nn1-c1cc(C(F)(F)F)n[nH]1 .
Marked response: 26.4

---

target: HIV-1 NefNL4-3 (Human immunodeficiency virus type 1 group M subtype B, UniProt P03406, A33V/T15A/T51N/V11I); assay: Surface plasmon resonance binding to recombinant full-length Nef (NL4-3)
pKd: −log10 of the molar value.
Kindly return 1 if reported pKd is no lower than 6; return 0 if it is lower.

Exam item: I'd appreciate it if you could say whether CS(=O)(=O)c1ccc(-c2nn(-c3nc4ccccc4[nH]3)c(O)c2CCC2CCOCC2)cc1 has pKd at least equal to 6.
Marked response: 0

Exam item: Tell me whether pKd is at least 6 here: COC(=O)N1CCC(c2nn(-c3nc4ccccc4[nH]3)c(O)c2CCc2ccc(F)cc2)CC1
Marked response: 1

Exam item: Assess whether reported pKd for CC(=O)N1CCC(c2c(-c3ccc(C(F)(F)F)cc3)nn(-c3nc4ccccc4[nH]3)c2O)CC1 sits at 6 or higher.
Marked response: 0

Exam item: Can CC(=O)N1CCC(CCc2c(-c3ccc(C(F)(F)F)cn3)nn(-c3nc4cc(Br)ccc4[nH]3)c2O)CC1 be said to have pKd at or above 6?
Marked response: 1

---

// reported Kd for each item listed
target: HIV-1 NefNL4-3 (Human immunodeficiency virus type 1 group M subtype B, UniProt P03406, A33V/T15A/T51N/V11I); experiment: Surface plasmon resonance binding to recombinant full-length Nef (NL4-3); conditions: Table 1; 1:1 Langmuir fit where the KD2 cell says '1 to 1 fitting', else 2-site fit; read-out: Nef NL4-3 Binding, SPR 1:1 or 2-site fitting KD1
Remember to follow the number with its unit.

Reference set, count: 4
Exam item: For the molecule Cn1cccc(-c2nn(-c3nc4ccccc4[nH]3)c(O)c2CCc2ccc(F)cc2)c1=O [Compound I-127] , give its reported Kd.
Marked response: 2100 nM

Exam item: Return Kd for the following molecule: O=C(COCc1ccncc1)N1CCC(Cc2nn(-c3nc4ccccc4[nH]3)c(O)c2CCc2ccc(F)cc2)CC1 [Compound I-769]
Marked response: 798 nM

Exam item: Note Kd for the molecule shown: Oc1c(CCC2CCNCC2)c(-c2ccc(C(F)(F)F)cn2)nn1-c1nc2cc(Br)ccc2[nH]1 [Compound I-555]
Marked response: 875 nM

Exam item: Name the recorded Kd of the item O=S(=O)(C1CCCCC1)N1CCC(c2nn(-c3nc4ccccc4[nH]3)c(O)c2CCc2ccc(F)cc2)CC1 [Compound I-747] in your answer.
Marked response: 89.1 nM

---
Exam item: Given CC(C)(C)OC(=O)NC1(c2nn(-c3nc4ccccc4[nH]3)c(O)c2CCc2ccc(F)cc2)CCOCC1 [Compound I-213] , respond with its Kd.
Marked response: 1600 nM

---

molecular target: HIV-1 NefNL4-3 (Human immunodeficiency virus type 1 group M subtype B, UniProt P03406, A33V/T15A/T51N/V11I); test: Surface plasmon resonance binding to recombinant full-length Nef (NL4-3); conditions: Table 4; 2-step induced fit; T = 1/koff2
// values below are reported T, minutes (residence time)

The cases that follow already have their T, minutes (residence time) on record.
Exam item: Find the measured T, minutes (residence time) of CC(C)(C)OC(=O)N1C[C@@H]2[C@H](C1)[C@H]2c1nn(-c2nc3ccccc3[nH]2)c(O)c1CCc1ccc(F)cc1 and report it.
Marked response: 3.81E- 01 minutes

Exam item: Fill in T, minutes (residence time) for record Cn1ccc(-c2nn(-c3nc4ccccc4[nH]3)c(O)c2CCc2ccc(F)cc2)cc1=O
Marked response: 8.59E + 03 minutes

Exam item: Give me measured T, minutes (residence time), please, for this molecule: CC(C)(O)C(=O)N1CCC(CCc2c(-c3cccc(S(C)(=O)=O)c3)nn(-c3nc4ccccc4[nH]3)c2O)CC1
Marked response: 1.06E + 01 minutes

Exam item: Complete the entry with T, minutes (residence time) for O=C(NCC1CC1)c1ccc(-c2nn(-c3nc4ccccc4[nH]3)c(O)c2CCc2ccc(F)cc2)cc1
Marked response: 2.06E + 03 minutes

Exam item: Provide only the value of recorded T, minutes (residence time) for O=C(c1ccc(F)cc1)N1CCC(CCc2c(C3CC3)nn(-c3nc4cc(Cl)ccc4[nH]3)c2O)CC1
Marked response: 4.16E + 00 minutes

Others:
Exam item: Name the recorded T, minutes (residence time) of the molecule listed here: CC(=O)N1CCC(c2nn(-c3nc4ccc(Cl)cc4[nH]3)c(O)c2CCc2ccc(F)cc2)CC1
Marked response: 5.05E + 00 minutes

Exam item: Read off the recorded T, minutes (residence time) for Cn1c(-n2nc(-c3ccc(C(F)(F)F)cc3)c(CCc3ccc(F)cc3)c2O)nc2ccccc21
Marked response: 1.45E + 03 minutes

Exam item: Supply recorded T, minutes (residence time) for Oc1c(CCC2CCNCC2)c(C2CC2)nn1-c1nc2cc(Cl)ccc2[nH]1 here.
Marked response: 3.33E + 06 minutes

Exam item: Tell us which T, minutes (residence time) value is on record for Oc1c(CCC2CCNCC2)c(-c2ccc(C(F)(F)F)cc2)nn1-c1nc2ccccc2[nH]1
Marked response: 2.17E + 01 minutes

Exam item: Tell us which T, minutes (residence time) value is on record for O=C(C1CCC(O)CC1)N1CCC(c2nn(-c3nc4ccccc4[nH]3)c(O)c2CCc2ccc(F)cc2)CC1 (stereo not shown)
Marked response: 6.44E + 03 minutes
